Below, each entry is listed alongside its reported BUT.
- Tested on: rumen inoculum
- RUN DESCRIPTION: Rumen in vitro model
- Design: species or system steer
- PROTOCOL CONDITIONS: 0.5 ppm
REPORTED PROPERTY: BUT (% OF CONTROL)

>>> value("CCCCCCCCCC(=O)N[C@H]1[C@H](Oc2c3cc4cc2Oc2c(Cl)cc(cc2Cl)[C@@H](O)[C@@H]2NC(=O)[C@H](NC(=O)[C@@H]4NC(=O)[C@H]4NC(=O)[C@H](NC(=O)[C@H](NC)c5ccc(O)c(c5)Oc5cc(O)c(Cl)c4c5)[C@H](O)c4ccc(c(Cl)c4)O3)c3ccc(O)c(c3)-c3c(O[C@H]4O[C@H](CO)[C@@H](O)[C@H](O)[C@@H]4O)cc(O)cc3[C@@H](C(=O)O)NC2=O)O[C@H](C(=O)O)[C@@H](O)[C@@H]1O [AAD 216A]")
96
>>> value("CN[C@H](CC(C)C)C(=O)N[C@H]1C(=O)N[C@@H](CC(N)=O)C(=O)N[C@H]2C(=O)N[C@H]3C(=O)N[C@H](C(=O)N[C@H](C(=O)O)c4cc(O)cc(O)c4-c4cc3ccc4O)[C@H](O)c3ccc(c(Cl)c3)Oc3cc2cc(c3O[C@@H]2O[C@H](CO)[C@@H](O)[C@H](O)[C@H]2O[C@H]2C[C@](C)(N)[C@H](O)[C@H](C)O2)Oc2ccc(cc2Cl)[C@H]1O")
96
>>> value("CN[C@H]1C(=O)N[C@H]2C(=O)N[C@H](C(=O)N[C@H]3C(=O)N[C@H]4C(=O)N[C@H](C(=O)N[C@H](C(=O)O)c5cc(O)cc(O[C@H]6O[C@H](CO)[C@@H](O)[C@H](O)[C@@H]6O)c5-c5cc4ccc5O)[C@H](O)c4cc(Cl)c(c(Cl)c4)Oc4cc3cc(c4O[C@@H]3O[C@H](C(=O)O)[C@@H](O)[C@H](O)[C@H]3NC(=O)CCCCCCCC(C)C)Oc3ccc(cc3Cl)[C@H]2O)c2cc(cc(O)c2Cl)Oc2cc1ccc2O [AAD 216B]")
100
>>> value("CC[C@@]1([C@H]2O[C@H]([C@H]3O[C@@](O)(CO)[C@H](C)C[C@@H]3C)C[C@H]2C)CC[C@H]([C@@]2(C)CC[C@]3(C[C@H](O)[C@@H](C)[C@@H]([C@H](C)[C@H](OC)[C@@H](C)C(=O)O)O3)O2)O1 [Monensin Sodium]")
100
>>> value("CN[C@H]1C(=O)N[C@H]2C(=O)N[C@H](C(=O)N[C@H]3C(=O)N[C@H]4C(=O)N[C@H](C(=O)N[C@H](C(=O)O)c5cc(O)cc(O[C@H]6O[C@H](CO)[C@@H](O)[C@H](O)[C@@H]6O)c5-c5cc4ccc5O)[C@H](O)c4cc(Cl)c(c(Cl)c4)Oc4cc3cc(c4O[C@@H]3O[C@H](C(=O)O)[C@@H](O)[C@H](O)[C@H]3NC(=O)CCCCCCCCC(C)C)Oc3ccc(cc3Cl)[C@H]2O)c2cc(cc(O)c2Cl)Oc2cc1ccc2O")
95
